All figures here come from patent US20250339425A1.

Subject of test: human α7 nAChR (Homo sapiens, UniProt P36544)
Sequence (P36544 23-502): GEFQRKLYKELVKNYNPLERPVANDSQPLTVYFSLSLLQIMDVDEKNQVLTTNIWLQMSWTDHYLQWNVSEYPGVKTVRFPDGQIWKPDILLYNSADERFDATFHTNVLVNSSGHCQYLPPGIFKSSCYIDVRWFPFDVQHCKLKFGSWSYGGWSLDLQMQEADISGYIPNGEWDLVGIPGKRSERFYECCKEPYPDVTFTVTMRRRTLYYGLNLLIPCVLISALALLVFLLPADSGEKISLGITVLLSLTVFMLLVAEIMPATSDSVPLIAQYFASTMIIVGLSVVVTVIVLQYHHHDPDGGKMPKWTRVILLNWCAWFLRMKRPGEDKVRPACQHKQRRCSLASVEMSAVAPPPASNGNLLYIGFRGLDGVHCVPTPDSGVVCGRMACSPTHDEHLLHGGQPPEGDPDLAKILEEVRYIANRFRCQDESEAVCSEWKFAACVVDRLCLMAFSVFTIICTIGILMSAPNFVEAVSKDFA
Particulars: read-out: α7 EC50; Table 1; unit inferred
Result type: pEC50
A value of pEC50 is the negative decimal logarithm of a concentration given in moles per litre.

Value lookup for pEC50; key = CC[N+]1(C)CCN(c2ccc(NC(=O)c3cccc(C)n3)cc2)CC1 [Compound II]
4.11

Value lookup for pEC50; key = CC[N+]1(C)CCN(c2ccc(C(=O)Nc3cccc(C)n3)cc2)CC1 [Compound 3f, reference compound]
5.21

Value lookup for pEC50; key = CC[N+]1(CC)CCN(c2ccc(NC(=O)c3cccc(C)n3)cc2)CC1.[I-] [Compound I]
5.33

----------
Would you kindly list IC50 for each of these compounds?
Subject of test: α9α10 nAChR (Homo sapiens, UniProt Q9GZZ6+Q9UGM1)
Construct: expressed in transfected cells; host or cells: Xenopus laevis oocytes injected with in vitro transcribed RNA
Sequence (Q9GZZ6 25-450, one chain of several): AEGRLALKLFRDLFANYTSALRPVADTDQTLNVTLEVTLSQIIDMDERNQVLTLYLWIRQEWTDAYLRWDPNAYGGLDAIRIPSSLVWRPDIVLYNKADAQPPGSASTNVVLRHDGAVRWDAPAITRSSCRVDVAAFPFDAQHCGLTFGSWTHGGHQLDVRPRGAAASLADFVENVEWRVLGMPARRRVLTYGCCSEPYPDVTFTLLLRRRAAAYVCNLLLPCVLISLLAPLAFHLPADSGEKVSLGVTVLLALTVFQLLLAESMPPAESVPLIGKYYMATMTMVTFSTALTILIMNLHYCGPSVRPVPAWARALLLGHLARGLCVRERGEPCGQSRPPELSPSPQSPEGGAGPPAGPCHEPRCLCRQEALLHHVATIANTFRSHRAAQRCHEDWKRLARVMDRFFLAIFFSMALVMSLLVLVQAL
Test: Inhibition of ACh-evoked currents, co-application with 60 μM ACh, oocytes expressing α9α10
Format: cell-based
Particulars: co-applied with 60 μM ACh; unit not printed for these values (α9 values in μM); read-out: IC50 as antagonist on α9α10
Procedure: FIGS. 13A-13B show inhibition concentration-response studies for chiral diMPP compounds (2R)PA-diMPP (8) and (2S)PA-diMPP (9), identified as α9 and α9α10 antagonists. Experimental responses were measured relative to the preceding ACh control response. […]
Numeric answer only, unit µM assumed.

Value lookup for IC50; key = "Cc1cccc(NC(=O)c2ccc(N3CC[N+](C)(C)[C@H](C)C3)cc2)n1"
0.406

Value lookup for IC50; key = "Cc1cccc(NC(=O)c2ccc(N3CC[N+](C)(C)[C@@H](C)C3)cc2)n1"
4.33

----------
Would you kindly list EC50 for each of these compounds?
Subject of test: α9 nAChR (Homo sapiens, UniProt Q9UGM1)
Sequence (Q9UGM1 26-479 limits assumed): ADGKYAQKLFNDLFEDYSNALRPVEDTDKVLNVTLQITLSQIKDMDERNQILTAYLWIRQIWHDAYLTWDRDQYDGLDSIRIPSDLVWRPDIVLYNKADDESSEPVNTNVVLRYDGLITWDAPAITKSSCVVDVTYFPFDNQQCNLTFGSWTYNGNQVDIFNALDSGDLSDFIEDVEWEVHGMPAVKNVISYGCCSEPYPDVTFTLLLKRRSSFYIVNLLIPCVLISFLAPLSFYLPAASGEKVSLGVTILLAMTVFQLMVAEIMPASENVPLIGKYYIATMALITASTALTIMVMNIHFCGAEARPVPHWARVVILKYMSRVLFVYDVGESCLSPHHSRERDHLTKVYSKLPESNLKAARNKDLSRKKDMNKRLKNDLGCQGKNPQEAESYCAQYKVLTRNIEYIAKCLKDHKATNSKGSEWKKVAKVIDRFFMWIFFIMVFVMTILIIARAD
Particulars: read-out: α9 EC50; Table 2; unit inferred
Numeric answer only, unit nM assumed.

Value lookup for EC50; key = "Cc1cccc(NC(=O)c2ccc(N3CC[N+](C)(C)[C@@H](C)C3)cc2)n1"
800

Value lookup for EC50; key = CC[N+]1(C)CCN(c2ccc(C(=O)Nc3cccc(C)n3)cc2)C[C@H]1C (stereo partly drawn)
1930

Value lookup for EC50; key = CC[N+]1(C)CCN(c2ccc(C(=O)Nc3cccc(C)n3)cc2)C[C@@H]1C (stereo partly drawn)
2090

----------
Subject of test: human α7 nAChR (Homo sapiens, UniProt P36544)
pEC50: −log10 of the molar value.
I would appreciate it if you labelled entries Yes when pEC50 is 5 or higher, otherwise No.

Form field: pEC50 at least 5? Entry: CC[N+]1(C)CCN(c2ccc(NC(=O)c3ccc4ccccc4n3)cc2)CC1 [V-f]
Yes

Form field: pEC50 at least 5? Entry: CC[N+]1(C)CCN(c2ccc(NC(=O)c3ccc(C)cn3)cc2)CC1 [V-h]
No

Form field: pEC50 at least 5? Entry: CC[N+]1(C)CCN(c2ccc(NC(=O)c3cccc(Br)n3)cc2)CC1 [V-a]
Yes

Form field: pEC50 at least 5? Entry: CC[N+]1(C)CCN(c2ccc(C#N)cc2)CC1C [(2S)r/s-pCN-EMPP]
No

Form field: pEC50 at least 5? Entry: CC[N+]1(C)CCN(c2ccc(NC(=O)c3cccc(Cl)n3)cc2)CC1 [V-b]
No
